Provide the reported IC50 at 1 h of each item.
# RUN DESCRIPTION: Cytotoxicity against HK-2 cells assessed as inhibition of cell growth incubated for 1 hr by MTT assay
# Type: toxicity, cell-based
# TEST PARAMETERS: human
Residues, ends and D or L forms follow the SMILES beside them.
// units = µM; emit number, no label

Prompt: Request the reported IC50 at 1 h associated with CC(C)C[C@H](NC(=O)[C@H](CC(C)C)NC(=O)[C@H](CCCCN)NC(=O)[C@H](CCCCN)NC(=O)[C@H](CC(C)C)NC(=O)[C@H](CC(C)C)NC(=O)[C@H](CCC(=O)O)NC(=O)[C@H](CCCCN)NC(=O)[C@H](CC(C)C)NC(=O)[C@H](CC(C)C)NC(=O)[C@H](CCCCN)NC(=O)[C@H](CCCCN)NC(=O)[C@H](CC(C)C)NC(=O)[C@@H](N)CC(C)C)C(N)=O (H-LLKKLLKELLKKLL-NH2)
Completion: 3.8

Prompt: Also check CC(C)C[C@H](NC(=O)[C@H](CC(C)C)NC(=O)[C@H](CCCCN)NC(=O)[C@H](CCCCN)NC(=O)[C@H](CC(C)C)NC(=O)[C@H](CC(C)C)NC(=O)[C@H](CCCCN)NC(=O)[C@H](CCC(=O)O)NC(=O)[C@H](CC(C)C)NC(=O)[C@H](CC(C)C)NC(=O)[C@H](CCCCN)NC(=O)[C@H](CCCCN)NC(=O)[C@H](CC(C)C)NC(=O)[C@@H](N)CC(C)C)C(N)=O (H-LLKKLLEKLLKKLL-NH2)
Completion: 4.9

Prompt: Same for CC(C)C[C@H](NC(=O)[C@H](CCCCN)NC(=O)[C@H](CC(C)C)NC(=O)[C@H](CC(C)C)NC(=O)[C@H](CCCCN)NC(=O)[C@H](CCCCN)NC(=O)[C@H](CC(C)C)NC(=O)[C@H](CC(C)C)NC(=O)[C@H](CCCCN)NC(=O)[C@H](CCCCN)NC(=O)[C@H](CC(C)C)NC(=O)[C@H](CC(C)C)NC(=O)[C@H](CCCCN)NC(=O)[C@@H](N)CCCCN)C(N)=O (H-KKLLKKLLKKLLKL-NH2)
Completion: 8.91

====

# RUN DESCRIPTION: Therapeutic index, ratio of HC10 for mouse RBC to IC50 for cytotoxicity against human MCF7 cells
# Type: toxicity, cell-based
# TEST PARAMETERS: mouse RBC and MCF7 cells, read-out: TI
Residues, ends and D or L forms follow the SMILES beside them.
QUANTITY: selectivity ratio
Form: value (number only, do not type unit).

Prompt: selectivity ratio lookup needed for CC(C)C[C@H](NC(=O)[C@H](CC(C)C)NC(=O)[C@H](CCCCN)NC(=O)[C@H](CCCCN)NC(=O)[C@H](CC(C)C)NC(=O)[C@H](CC(C)C)NC(=O)[C@H](CCCCN)NC(=O)[C@H](CCCCN)NC(=O)[C@H](CC(C)C)NC(=O)[C@H](CC(C)C)NC(=O)[C@H](CCCCN)NC(=O)[C@H](CCCCN)NC(=O)[C@H](CC(C)C)NC(=O)[C@H](CC(C)C)NC(=O)[C@@H](N)CCCCN)C(=O)N[C@@H](CCCCN)C(N)=O (H-KLLKKLLKKLLKKLLK-NH2) , thanks.
Completion: 1.22
